So I've got a bunch of compounds here, and I need their pEC50 values.
Biological target: P2Y receptor (turkey erythrocyte membranes) (Meleagris gallopavo, UniProt P49652)
Construct: from tissue; host or cells: washed turkey erythrocytes, ghosts prepared by hypotonic lysis
Sequence (P49652 whole entry): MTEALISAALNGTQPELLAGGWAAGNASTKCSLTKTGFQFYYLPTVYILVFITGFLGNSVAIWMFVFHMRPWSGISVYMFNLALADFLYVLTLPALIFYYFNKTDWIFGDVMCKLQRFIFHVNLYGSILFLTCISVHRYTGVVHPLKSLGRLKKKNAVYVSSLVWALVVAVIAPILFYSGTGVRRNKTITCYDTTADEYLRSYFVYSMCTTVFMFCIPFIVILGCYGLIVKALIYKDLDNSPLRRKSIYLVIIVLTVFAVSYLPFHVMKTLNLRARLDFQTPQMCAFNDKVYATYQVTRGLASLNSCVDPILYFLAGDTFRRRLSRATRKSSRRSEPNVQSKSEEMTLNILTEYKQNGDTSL
Experiment: Stimulation of phospholipase C (inositol phosphate formation) in turkey erythrocyte membranes
Type: biochemical
Conditions: turkey erythrocyte membranes; read-out: K0.5
pEC50: −log10 of the molar value.

Exam item: Suppose we examine the compound `Nc1nc(SCCc2ccc([N+](=O)[O-])cc2)nc2c1ncn2[C@@H]1O[C@H](COP(=O)(O)OP(=O)(O)OP(=O)(O)O)[C@@H](O)[C@H]1O` ; what pEC50 value has been reported?
Marked response: 7.52 to 8.30

Exam item: Suppose we examine the compound `Nc1nc(SCCc2ccccc2)nc2c1ncn2[C@@H]1O[C@H](COP(=O)(O)OP(=O)(O)OP(=O)(O)O)[C@@H](O)[C@H]1O` ; what pEC50 value has been reported?
Marked response: 7.52 to 8.30

Exam item: Suppose we examine the compound `Nc1nc(SC2CCCCC2)nc2c1ncn2[C@@H]1O[C@H](COP(=O)(O)OP(=O)(O)OP(=O)(O)O)[C@@H](O)[C@H]1O` ; what pEC50 value has been reported?
Marked response: 7.52 to 8.30
